I'd appreciate it if you could supply %-inhibition of TYRO3 values for the items below.
Target: panel of more than 300 wild-type and mutant kinases (313 kinase panel) (Homo sapiens)
Sequence (Q06418 41-890): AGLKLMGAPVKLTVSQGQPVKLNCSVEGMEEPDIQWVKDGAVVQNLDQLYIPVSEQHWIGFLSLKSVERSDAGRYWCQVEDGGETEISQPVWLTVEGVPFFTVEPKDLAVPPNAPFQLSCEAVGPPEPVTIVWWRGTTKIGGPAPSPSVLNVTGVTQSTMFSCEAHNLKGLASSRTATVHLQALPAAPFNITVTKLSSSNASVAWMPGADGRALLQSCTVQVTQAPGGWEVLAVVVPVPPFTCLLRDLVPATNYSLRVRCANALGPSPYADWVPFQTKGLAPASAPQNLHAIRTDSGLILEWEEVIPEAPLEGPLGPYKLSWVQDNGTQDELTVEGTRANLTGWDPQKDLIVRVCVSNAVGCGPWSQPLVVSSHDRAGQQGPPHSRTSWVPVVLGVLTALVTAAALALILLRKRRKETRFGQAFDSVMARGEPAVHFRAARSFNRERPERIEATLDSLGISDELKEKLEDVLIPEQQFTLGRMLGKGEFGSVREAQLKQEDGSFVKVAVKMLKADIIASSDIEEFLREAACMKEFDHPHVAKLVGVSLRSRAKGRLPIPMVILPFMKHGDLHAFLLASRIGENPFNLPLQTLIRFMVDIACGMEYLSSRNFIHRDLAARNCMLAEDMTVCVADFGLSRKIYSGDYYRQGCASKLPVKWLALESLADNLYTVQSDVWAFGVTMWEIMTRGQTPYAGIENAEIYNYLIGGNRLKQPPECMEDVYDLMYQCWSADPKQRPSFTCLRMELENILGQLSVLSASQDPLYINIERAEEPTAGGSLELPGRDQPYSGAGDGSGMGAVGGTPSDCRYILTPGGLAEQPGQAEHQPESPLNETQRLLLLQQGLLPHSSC
Test: Kinase profiling in a biochemical assay panel (mobility shift assays and ELISA), %-inhibition at 1 μM; selectivity entropy
Conditions: kinase TYRO3; compound at 1 μM
# value in %; strip the unit string

### Prompt Notebook: pull reported %-inhibition of TYRO3 for panel of more than 300 wild-type and mutant kinases (313 kinase panel) (Homo sapiens), entry CCN(CC)CCNC(=O)c1c(C)[nH]c(/C=C2\C(=O)Nc3ccc(F)cc32)c1C [sunitinib]
### Response 98

### Prompt Notebook: pull reported %-inhibition of TYRO3 for panel of more than 300 wild-type and mutant kinases (313 kinase panel) (Homo sapiens), entry CO[C@H]1C[C@@H]2CC[C@@H](C)[C@@](O)(O2)C(=O)C(=O)N2CCCC[C@H]2C(=O)O[C@H]([C@H](C)C[C@@H]2CC[C@@H](OC(=O)C(C)(CO)CO)[C@H](OC)C2)CC(=O)[C@H](C)/C=C(\C)[C@@H](O)[C@@H](OC)C(=O)[C@H](C)C[C@H](C)/C=C/C=C/C=C/1C [temsirolimus]
### Response -1.34

### Prompt Notebook: pull reported %-inhibition of TYRO3 for panel of more than 300 wild-type and mutant kinases (313 kinase panel) (Homo sapiens), entry CO[C@H]1C[C@@H]2CC[C@@H](C)[C@@](O)(O2)C(=O)C(=O)N2CCCC[C@H]2C(=O)O[C@H]([C@H](C)C[C@@H]2CC[C@@H](OCCO)[C@H](OC)C2)CC(=O)[C@H](C)/C=C(\C)[C@@H](O)[C@@H](OC)C(=O)[C@H](C)C[C@H](C)/C=C/C=C/C=C/1C [everolimus]
### Response -2.32

### Prompt Notebook: pull reported %-inhibition of TYRO3 for panel of more than 300 wild-type and mutant kinases (313 kinase panel) (Homo sapiens), entry CC(=O)Nc1cccc(-n2c(=O)n(C3CC3)c(=O)c3c(Nc4ccc(I)cc4F)n(C)c(=O)c(C)c32)c1 [trametinib]
### Response -2.65

### Prompt Notebook: pull reported %-inhibition of TYRO3 for panel of more than 300 wild-type and mutant kinases (313 kinase panel) (Homo sapiens), entry COc1cc2c(Nc3ccc(Br)cc3F)ncnc2cc1OCC1CCN(C)CC1 [vandetanib]
### Response 94

### Prompt Notebook: pull reported %-inhibition of TYRO3 for panel of more than 300 wild-type and mutant kinases (313 kinase panel) (Homo sapiens), entry Cc1ccc(C(=O)Nc2ccc(CN3CCN(C)CC3)c(C(F)(F)F)c2)cc1C#Cc1cnc2cccnn12 [ponatinib]
### Response 45

### Prompt Notebook: pull reported %-inhibition of TYRO3 for panel of more than 300 wild-type and mutant kinases (313 kinase panel) (Homo sapiens), entry CCCS(=O)(=O)Nc1ccc(F)c(C(=O)c2c[nH]c3ncc(-c4ccc(Cl)cc4)cc23)c1F [vemurafenib]
### Response 3.16

* * *

Biological target: panel of more than 300 wild-type and mutant kinases (313 kinase panel) (Homo sapiens)
Assay: Kinase profiling in a biochemical assay panel (mobility shift assays and ELISA), %-inhibition at 1 μM; selectivity entropy
Details: kinase FAK; compound at 1 μM
Measured metric: %-inhibition of FAK (%)
# value in %; strip the unit string

### Prompt Notebook: pull reported %-inhibition of FAK for panel of more than 300 wild-type and mutant kinases (313 kinase panel) (Homo sapiens), entry `CS(=O)(=O)CCNCc1ccc(-c2ccc3ncnc(Nc4ccc(OCc5cccc(F)c5)c(Cl)c4)c3c2)o1`
### Response 10

### Prompt Notebook: pull reported %-inhibition of FAK for panel of more than 300 wild-type and mutant kinases (313 kinase panel) (Homo sapiens), entry `COc1cc2c(Nc3ccc(Br)cc3F)ncnc2cc1OCC1CCN(C)CC1`
### Response -2.11

### Prompt Notebook: pull reported %-inhibition of FAK for panel of more than 300 wild-type and mutant kinases (313 kinase panel) (Homo sapiens), entry `CC(C)(C)c1nc(-c2cccc(NS(=O)(=O)c3c(F)cccc3F)c2F)c(-c2ccnc(N)n2)s1`
### Response 13

* * *

Target: panel of more than 300 wild-type and mutant kinases (313 kinase panel) (Homo sapiens)
Assay: Kinase profiling in a biochemical assay panel (mobility shift assays and ELISA), %-inhibition at 1 μM; selectivity entropy
Conditions: kinase MUSK; 1 μM
Measured metric: %-inhibition of MUSK (%)
# value in %; strip the unit string

### Prompt GET /values?readout=%-inhibition of MUSK&item= C[C@@H](Oc1cc(-c2cnn(C3CCNCC3)c2)cnc1N)c1c(Cl)ccc(F)c1Cl [crizotinib]
### Response 99

### Prompt GET /values?readout=%-inhibition of MUSK&item= Cc1ccc(C(=O)Nc2ccc(CN3CCN(C)CC3)c(C(F)(F)F)c2)cc1C#Cc1cnc2cccnn12 [ponatinib]
### Response 100

### Prompt GET /values?readout=%-inhibition of MUSK&item= O=S(=O)(c1cccc2cnccc12)N1CCCNCC1 [fasudil]
### Response 2

* * *

Molecular target: panel of more than 300 wild-type and mutant kinases (313 kinase panel) (Homo sapiens, UniProt P27361)
Sequence (P27361 whole entry, change not shown): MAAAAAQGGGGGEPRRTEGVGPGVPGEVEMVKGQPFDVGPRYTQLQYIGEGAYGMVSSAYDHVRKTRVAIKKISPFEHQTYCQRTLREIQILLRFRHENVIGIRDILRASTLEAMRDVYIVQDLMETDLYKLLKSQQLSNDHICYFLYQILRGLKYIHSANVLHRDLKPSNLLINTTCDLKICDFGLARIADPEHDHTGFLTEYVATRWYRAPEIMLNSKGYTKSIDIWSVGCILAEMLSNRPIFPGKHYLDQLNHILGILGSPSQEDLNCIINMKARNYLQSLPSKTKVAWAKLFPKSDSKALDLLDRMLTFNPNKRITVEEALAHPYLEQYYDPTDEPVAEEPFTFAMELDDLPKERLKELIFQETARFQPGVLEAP
Test: Kinase profiling in a biochemical assay panel (mobility shift assays and ELISA), %-inhibition at 1 μM; selectivity entropy
Conditions: kinase Erk1; compound at 1 μM
I'd appreciate it if you could supply %-inhibition of Erk1 values for the items below.
# value in %; strip the unit string

### Prompt GET /values?readout=%-inhibition of Erk1&item= COc1cc2nccc(Oc3ccc(NC(=O)C4(C(=O)Nc5ccc(F)cc5)CC4)cc3)c2cc1OC [cabozantinib]
### Response -1.33

### Prompt GET /values?readout=%-inhibition of Erk1&item= `CO[C@H]1C[C@@H]2CC[C@@H](C)[C@@](O)(O2)C(=O)C(=O)N2CCCC[C@H]2C(=O)O[C@H]([C@H](C)C[C@@H]2CC[C@@H](OCCO)[C@H](OC)C2)CC(=O)[C@H](C)/C=C(\C)[C@@H](O)[C@@H](OC)C(=O)[C@H](C)C[C@H](C)/C=C/C=C/C=C/1C`
### Response -0.906

### Prompt GET /values?readout=%-inhibition of Erk1&item= `Cc1ccc(Nc2nccc(N(C)c3ccc4c(C)n(C)nc4c3)n2)cc1S(N)(=O)=O`
### Response -3.79

### Prompt GET /values?readout=%-inhibition of Erk1&item= `CCCS(=O)(=O)Nc1ccc(F)c(C(=O)c2c[nH]c3ncc(-c4ccc(Cl)cc4)cc23)c1F`
### Response 0.0533

### Prompt GET /values?readout=%-inhibition of Erk1&item= `N#CC[C@H](C1CCCC1)n1cc(-c2ncnc3[nH]ccc23)cn1`
### Response -2.29

### Prompt GET /values?readout=%-inhibition of Erk1&item= `C[C@@H](Oc1cc(-c2cnn(C3CCNCC3)c2)cnc1N)c1c(Cl)ccc(F)c1Cl`
### Response -2

### Prompt GET /values?readout=%-inhibition of Erk1&item= `CC(=O)Nc1cccc(-n2c(=O)n(C3CC3)c(=O)c3c(Nc4ccc(I)cc4F)n(C)c(=O)c(C)c32)c1`
### Response -1.14

* * *

I'd appreciate it if you could supply %-inhibition, CDK2/CycE1 values for the items below.
Molecular target: panel of more than 300 wild-type and mutant kinases (313 kinase panel) (Homo sapiens, UniProt P24941)
Assay: Kinase profiling in a biochemical assay panel (mobility shift assays and ELISA), %-inhibition at 1 μM; selectivity entropy
Conditions: kinase CDK2/CycE1; 1 μM compound
# value in %; strip the unit string

### Prompt GET /values?readout=%-inhibition, CDK2/CycE1&item= CCCS(=O)(=O)Nc1ccc(F)c(C(=O)c2c[nH]c3ncc(-c4ccc(Cl)cc4)cc23)c1F [vemurafenib]
### Response -5

### Prompt GET /values?readout=%-inhibition, CDK2/CycE1&item= COc1cc2nccc(Oc3ccc(NC(=O)C4(C(=O)Nc5ccc(F)cc5)CC4)cc3)c2cc1OC [cabozantinib]
### Response 5

### Prompt GET /values?readout=%-inhibition, CDK2/CycE1&item= Cc1cn(-c2cc(NC(=O)c3ccc(C)c(Nc4nccc(-c5cccnc5)n4)c3)cc(C(F)(F)F)c2)cn1 [nilotinib]
### Response 20

### Prompt GET /values?readout=%-inhibition, CDK2/CycE1&item= COc1cc2c(Nc3ccc(Br)cc3F)ncnc2cc1OCC1CCN(C)CC1 [vandetanib]
### Response -21

### Prompt GET /values?readout=%-inhibition, CDK2/CycE1&item= Cc1nc(Nc2ncc(C(=O)Nc3c(C)cccc3Cl)s2)cc(N2CCN(CCO)CC2)n1 [dasatinib]
### Response 12
